- EXPERIMENTAL_DETAILS: Octanol/water partition coefficient, log P of the compound
- Format: physicochemical
ENDPOINT_LABEL: logP
Please reply with the value in numeric form only.

MOL_SMILES: COc1cc2c(cc1OC)CN(CCc1ccc(NC(=O)c3ccccc3NC(=O)CCNC(=O)CC34CC5CC(CC(C5)C3)C4)cc1)CC2
ASSAY_VALUE: 6.89

Supply logP value. Item: COc1cc2c(cc1OC)CN(CCc1ccc(NC(=O)c3ccccc3NC(=O)c3ccc(NC(=O)CC45CC6CC(CC(C6)C4)C5)cc3)cc1)CC2
8.48

Specify measured logP for COc1cc2c(cc1OC)CN(CCc1ccc(NC(=O)c3ccccc3NC(=O)c3ccc(N)cc3)cc1)CC2 .
5.23

Give me measured logP, please, for this compound: COc1cc2c(cc1OC)CN(CCc1ccc(NC(=O)c3ccccc3NC(=O)CC34CC5CC(CC(C5)C3)C4)cc1)CC2
7.65
